Test system: HEK-293T
experimentDescription: Incucyte cell viability with HEK293T; note: filed as whole numbers so only -1 and 0 and 1 occur
Assay type: toxicity, cell-based
conditionsUsed: human, 0 h, 10 µM, compound concentration 10 uM, replicate number 2, timepoint 0 hours
Each record here notes measured Growth Rate.
# print the numeric value only

Example entries begin here.
CCCc1c(OCCCOc2ccc(OCC(=O)O)cc2)ccc(C(C)=O)c1O
0
COC(=N)c1nc2ccc3ncnc(Nc4ccc(OC)cc4F)c3c2s1
1
CC(C)(C)OC(=O)N1CCCC1CNC1CCC(c2cc(F)ccc2F)(S(=O)(=O)c2ccc(Cl)cc2)CC1 (centres undefined)
1
CCCCCNC(=O)NS(=O)(=O)c1cc([N+](=O)[O-])ccc1NC1CCCCC1
0
C=C(c1ccc(C(=O)O)cc1)c1cc2c(cc1C)C(C)(C)CCC2(C)C
0
O=C(Nc1cccnn1)N1CC(C/C=C/c2cncc(Oc3ccc(C(F)(F)F)cn3)n2)C1
1

GET /values?readout=Growth Rate&item= `O=C(NOCC1CC1)c1ccc(F)c(F)c1Nc1ccc(I)cc1Cl`
1

Input CN1C2CCC1CC(OC(c1ccc(F)cc1)c1ccc(F)cc1)C2.Cl (centres undefined)
1

Now consider `Cc1ccc(-c2cnc([C@@]3(O)CC[C@H](C(=O)O)C(C)(C)C3)s2)cc1Nc1cccc(C(F)(F)F)n1` and answer again.
1

----------
System: HEK-293T
experimentDescription: Multiplex assay against HEK293T
Assay type: toxicity, cell-based
conditionsUsed: human, 12 h, 10 µM, compound concentration 10 uM, replicate 2
Binning scheme for Total Cell Count: bottom end = under 200, midrange = from 200 up to 1000, top end = 1000 and over

Below, 3 molecules whose answers are already recorded.
COc1cc2ncnc(Nc3ccc(F)c(Cl)c3)c2cc1NC(=O)/C=C/CN1CCCCC1 [DACOMITINIB ANHYDROUS]
top end
CCn1cc(-c2ccnc3[nH]c(-c4cccc(CN(C)C)c4)cc23)c(-c2ccc(NC(=O)N(C)C)cc2)n1 [GSK-1070916]
top end
CCOc1cc(C(=O)N2CCC(N3CCN(C)CC3)CC2)ccc1Nc1ncc2c(n1)N(C1CCCC1)c1ccccc1C(=O)N2C
midrange

Band for the recorded Total Cell Count of `O=C(Nc1ccc(-c2ccnc(Nc3ccc(N4CCOCC4)cc3)n2)cc1)[C@@H]1CCCN1` ?
bottom end

Try this molecule next: `CCN1CCN(Cc2ccc(Nc3ncc(F)c(-c4cc(F)c5nc(C)n(C(C)C)c5c4)n3)nc2)CC1.CS(=O)(=O)O`
midrange

Also `CCCS(=O)(=O)c1nc(NC2CC2)cc(-c2ccc3c(ccn3C3CC(C)(C)NC(C)(C)C3)c2)n1` , if possible.
midrange

Now consider CCCS(=O)(=O)Nc1ccc(F)c(C(=O)c2c[nH]c3ncc(Cl)cc23)c1F [PLX-4720] and answer again.
top end

How about `Cl.Oc1ccc2c3c1O[C@H]1c4[nH]c5c(c4C[C@@]4(O)[C@@H](C2)N(CC2CC2)CC[C@]314)C[C@@]1(O)[C@H]2Cc3ccc(O)c4c3[C@@]1(CCN2CC1CC1)[C@H]5O4` ?
midrange

----------
Tested on: Fibroblast
experimentDescription: Multiplex assay against human fibroblast
Assay type: toxicity, cell-based
conditionsUsed: 12 h, 10 µM, compound concentration 10 uM, replicate 2
In this section, each of the compounds is paired with its reported Population Normal (%).
State the answer as a number, implicitly in %.

Known results for compounds:
COc1cccc2cc(-c3nc([C@H]4CC[C@H](C(=O)O)CC4)n4ncnc(N)c34)[nH]c12
68
O=C(Nc1ccc(Cl)cc1)Nc1cccc(-c2cccc(N3CCCC3)n2)c1
92
Cc1cn(-c2cc(NC(=O)c3ccc(C)c(Nc4nccc(-c5cccnc5)n4)c3)cc(C(F)(F)F)c2)cn1
92
S=C(NCCCc1c[nH]cn1)NCCCN(Cc1ccc(Cl)c(Cl)c1)c1ccc(Br)cn1
88
Cl.O=c1c2cccn2c2ccccc2n1CCCN1CCC(c2ccc(Cl)cc2)CC1
89
CCn1cc(-c2ccnc3[nH]c(-c4cccc(CN(C)C)c4)cc23)c(-c2ccc(NC(=O)N(C)C)cc2)n1
50
O=C(Nc1cccnn1)N1CCC(=Cc2cccc(Oc3ccc(C(F)(F)F)cn3)c2)CC1
75

Find the measured Population Normal (%): item `C=CCn1c(=O)c2cnc(Nc3ccc(N4CCN(C)CC4)cc3)nc2n1-c1cccc(C(C)(C)O)n1` , target or system Fibroblast.
58
